Items are presented alongside their recorded solubility kinetic.
Stated conditions: buffer; pH 7.4; 200.0 µM

Compound: Cc1ccc(C(=O)NCCNC(=O)Cc2ccccc2)cn1
Readout qualifier: >
solubility kinetic / µg/mL: 44.6
--
Compound: Cc1ccc(CNC(=O)c2cc(Cl)cc(Cl)c2)n1C
Readout qualifier: =
solubility kinetic / µg/mL: 11.1
--
Compound: Cc1ccc(S(=O)(=O)N2CCN(C(=O)C3CCCO3)CC2)cc1 (configuration not stated)
Readout qualifier: =
solubility kinetic / µg/mL: 49.8
--
Compound: CC(=O)c1cccc(NC(=O)COC(=O)CCC(=O)c2ccc(F)cc2)c1
Readout qualifier: =
solubility kinetic / µg/mL: 53.9
--
Compound: Cc1cc(/C(N)=N/OC(=O)c2ccc(Cl)cc2)no1
Readout qualifier: =
solubility kinetic / µg/mL: 1.6
--
Compound: O=C(c1ccc2nc[nH]c2c1)N1CCc2ccccc2C1
Readout qualifier: >
solubility kinetic / µg/mL: 41.6
--
Compound: Cc1c(C(=O)Nc2ccccc2)cc(-c2ccccc2)n1CCCN1CCOCC1
Readout qualifier: =
solubility kinetic / µg/mL: 36.8
--
Compound: NC(=O)C1CCCN(S(=O)(=O)c2ccc3ccccc3c2)C1 (configuration not stated)
Readout qualifier: =
solubility kinetic / µg/mL: 13.1
--
Compound: NNC(=O)Cn1c(-c2ccccc2)cc2ccccc21
Readout qualifier: >
solubility kinetic / µg/mL: 39.8
--
Compound: NC(=O)c1cc2cc(Cc3ccccc3Cl)ccc2oc1=O
Readout qualifier: =
solubility kinetic / µg/mL: 1.2
--
Compound: O=C(Nc1cccc(Cl)c1)OC1CN2CCC1CC2 (configuration not stated)
Readout qualifier: =
solubility kinetic / µg/mL: 3.6
--
Compound: Cc1c(Cl)cccc1NC(=O)CNC(=O)C1CC(=O)N(C2CCCC2)C1 (configuration not stated)
Readout qualifier: >
solubility kinetic / µg/mL: 56.7
